Target: human V1a receptor (Homo sapiens, UniProt P37288)
Construct: expressed in transfected cells; host or cells: CHO K1 (ATCC), also stably transfected with a modified aequorin
Sequence (P37288 whole entry): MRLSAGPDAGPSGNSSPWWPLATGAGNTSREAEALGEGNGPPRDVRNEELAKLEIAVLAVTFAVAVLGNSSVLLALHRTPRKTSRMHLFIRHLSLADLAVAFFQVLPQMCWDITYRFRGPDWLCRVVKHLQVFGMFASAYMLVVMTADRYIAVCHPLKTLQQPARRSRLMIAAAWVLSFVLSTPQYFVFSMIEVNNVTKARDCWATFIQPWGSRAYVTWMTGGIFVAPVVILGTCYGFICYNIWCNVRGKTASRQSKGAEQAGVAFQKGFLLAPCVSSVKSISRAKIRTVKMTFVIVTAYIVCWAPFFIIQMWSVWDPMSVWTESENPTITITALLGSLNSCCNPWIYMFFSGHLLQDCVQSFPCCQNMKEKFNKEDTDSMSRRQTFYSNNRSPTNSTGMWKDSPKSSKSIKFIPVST
Test: Cellular in vitro assay for determining vasopressin receptor activity, V1a receptor cell line (CHO, aequorin luminescence)
Type: cell-based
Conditions: selectivity ratio IC50 hV2 / IC50 hV1a
parameter.measured: ratio IC50 hV2/hV1a

Known ratio IC50 hV2/hV1a results, listed for orientation:
molecule	ratio IC50 hV2/hV1a
O=C(Nc1ccc(Cl)nc1)c1ccccc1-n1cnc(Cn2nc(-c3ccc(Cl)cc3)n(C[C@H](O)C(F)(F)F)c2=O)n1	5.7
COCC1CCCN1C(=O)c1ccncc1-n1nc(Cn2nc(-c3ccc(Cl)cc3)n(C[C@H](O)C(F)(F)F)c2=O)nc1C(=O)N1CCS(=O)(=O)CC1 (mixture of isomers)	5.0
O=C(NN1CCOCC1)c1ccccc1-n1cnc(Cn2nc(-c3ccc(Cl)cc3)n(C[C@H](O)C(F)(F)F)c2=O)n1	188.6
O=C1CN(C(=O)c2nc(Cn3nc(-c4ccc(Cl)cc4)n(C[C@H](O)C(F)(F)F)c3=O)nn2-c2ncccc2C(=O)NCC(F)(F)F)CCN1	0.7
Cc1cc(C(=O)Nc2ncccc2-n2cnc(Cn3nc(-c4ccc(Cl)cc4)n(C[C@H](O)C(F)(F)F)c3=O)n2)no1	18.9
O=C(NC1CC1)c1ncccc1-n1cnc(Cn2nc(-c3ccc(Cl)cc3)n(C[C@@H](O)C(F)(F)F)c2=O)n1	60.5
O=C(c1cccc(Cl)c1-n1cnc(Cn2nc(-c3ccc(Cl)cc3)n(C[C@H](O)C(F)(F)F)c2=O)n1)N1CCC(F)(F)C1	30.5
O=C(Nc1ncccc1-n1cnc(Cn2nc(-c3ccc(Cl)cc3)n(C[C@H](O)C(F)(F)F)c2=O)n1)C1CCCCCC1	20.5

a. O=C(c1ncccc1-n1cnc(Cn2nc(-c3ccc(Cl)cc3)n(C[C@@H](O)C(F)(F)F)c2=O)n1)N1CCS(=O)(=O)CC1
b. O=C(CC1CCCCO1)Nc1ncccc1-n1cnc(Cn2nc(-c3ccc(Cl)cc3)n(C[C@H](O)C(F)(F)F)c2=O)n1 (stereo partly shown)
c. CC1CCCN(C(=O)c2ccccc2-n2cnc(Cn3nc(-c4ccc(Cl)cc4)n(C[C@H](O)C(F)(F)F)c3=O)n2)C1 (mixture of isomers)
d. CC[C@H](C)NC(=O)c1ccccc1-n1cnc(Cn2nc(-c3ccc(Cl)cc3)n(C[C@H](O)C(F)(F)F)c2=O)n1
e. O=C(CC1CC1)Nc1ncccc1-n1cnc(Cn2nc(-c3ccc(Cl)cc3)n(C[C@H](O)C(F)(F)F)c2=O)n1
Incoming: Please list these in order of increasing ratio IC50 hV2/hV1a. Thank you! Arrange the labels as the request states and list them.
Outgoing: b, a, d, e, c
(b: 9.6, a: 22.9, d: 67.7, e: 228.1, c: 351.9)

###

Molecular target: UniProt P37288
Assay: Cellular in vitro assay for determining vasopressin receptor activity, V1a receptor cell line (CHO, aequorin luminescence)
Conditions: CHO cell line transfected with human V1a receptor; [Arg]-vasopressin at EC50 concentration; read-out: IC50 hV1a
parameter.measured: IC50 (nM)

Known IC50 results, listed for orientation:
compound	tested.system	endpoint.result
Cc1ccnc(NC(=O)c2ccccc2-n2cnc(Cn3nc(-c4ccc(Cl)cc4)n(C[C@H](O)C(F)(F)F)c3=O)n2)n1 [Example 240]	UniProt P37288	12.5
CC1COCCN1C(=O)c1ccccc1-n1cnc(Cn2nc(-c3ccc(Cl)cc3)n(C[C@H](O)C(F)(F)F)c2=O)n1 (mixture of isomers) [Example 282]	UniProt P37288	2.35
O=C(NCC(F)(F)F)c1cccc(C(F)(F)F)c1-n1cnc(Cn2nc(-c3ccc(Cl)cc3)n(C[C@H](O)C(F)(F)F)c2=O)n1 [Example 412]	UniProt P37288	140

P. Cc1ccc(C(=O)Nc2ncccc2-n2cnc(Cn3nc(-c4ccc(Cl)cc4)n(C[C@H](O)C(F)(F)F)c3=O)n2)cc1 [Example 123]
Q. CN(C)C(=O)c1ccccc1-n1cnc(Cn2nc(-c3ccc(Cl)cc3)n(C[C@H](O)C(F)(F)F)c2=O)n1 [Example 264]
R. CC1CCC(NC(=O)c2ccccc2-n2cnc(Cn3nc(-c4ccc(Cl)cc4)n(C[C@H](O)C(F)(F)F)c3=O)n2)CC1 (stereo partly drawn) [Example 321]
Incoming: Rank order required: IC50, descending. Arrange the labels as the request states and list them.
Outgoing: P, R, Q
(P: 105 nM, R: 13 nM, Q: 2.45 nM)

###

Biological target: human V1a receptor (Homo sapiens, UniProt P37288)
Assay: Cellular in vitro assay for determining vasopressin receptor activity, V1a receptor cell line (CHO, aequorin luminescence)
Settings: CHO cell line transfected with human V1a receptor; [Arg]-vasopressin at EC50 concentration; read-out: IC50 hV1a
parameter.measured: IC50 (nM)

P. CN1CCCN(C(=O)c2ccccc2-n2cnc(Cn3nc(-c4ccc(Cl)cc4)n(C[C@H](O)C(F)(F)F)c3=O)n2)CC1 [Example 331]
Q. N#Cc1cccc(C(=O)Nc2ncccc2-n2cnc(Cn3nc(-c4ccc(Cl)cc4)n(C[C@H](O)C(F)(F)F)c3=O)n2)c1 [Example 153]
Incoming: Between the entries labeled P and Q , whose measured IC50 is lower? Give the label of your selection.
Outgoing: P

A. O=C(NCCC(F)(F)F)c1cccnc1-n1cnc(Cn2nc(-c3ccc(Cl)cc3)n(C[C@H](O)C(F)(F)F)c2=O)n1 [Example 497]
B. O=C(c1cccc(Cl)c1-n1cnc(Cn2nc(-c3ccc(Cl)cc3)n(C[C@@H](O)C(F)(F)F)c2=O)n1)N1CCCCC1 [Example 401]
C. O=C(NC1CC(F)(F)C1)c1ncccc1-n1cnc(Cn2nc(-c3ccc(Cl)cc3)n(C[C@H](O)C(F)(F)F)c2=O)n1 [Example 439]
Incoming: Please list these in order of increasing IC50. Thank you! Arrange the labels as the request states and list them.
Outgoing: A, C, B

###

Molecular target: human V1a receptor (Homo sapiens, UniProt P37288)
Construct: expressed in transfected cells; host or cells: CHO K1 (ATCC), also stably transfected with a modified aequorin
Experiment: Cellular in vitro assay for determining vasopressin receptor activity, V1a receptor cell line (CHO, aequorin luminescence)
Type: cell-based
Conditions: selectivity ratio IC50 hV2 / IC50 hV1a
parameter.measured: ratio IC50 hV2/hV1a

1. COCC1CCCN1C(=O)c1ccncc1-n1cnc(Cn2nc(-c3ccc(Cl)cc3)n(C[C@H](O)C(F)(F)F)c2=O)n1 (mixture of isomers)
2. CCn1ccc(C(=O)Nc2ncccc2-n2cnc(Cn3nc(-c4ccc(Cl)cc4)n(C[C@H](O)C(F)(F)F)c3=O)n2)n1
3. COC(C)(C)C(=O)Nc1ncccc1-n1cnc(Cn2nc(-c3ccc(Cl)cc3)n(C[C@H](O)C(F)(F)F)c2=O)n1
4. O=C1CN(c2nc(Cn3nc(-c4ccc(Cl)cc4)n(C[C@H](O)C(F)(F)F)c3=O)nn2-c2cccnc2C(=O)N[C@@H]2C[C@@H]2F)CCN1 (racemic)
5. O=C1CN(C(=O)c2ncccc2-n2cnc(Cn3nc(-c4ccc(Cl)cc4)n(C[C@@H](O)C(F)(F)F)c3=O)n2)CCN1
Incoming: Ascending by ratio IC50 hV2/hV1a, please: list the compounds accordingly. Arrange the labels as the request states and list them.
Outgoing: 4, 3, 2, 5, 1

###

Target: human V2 receptor (Homo sapiens)
Construct: expressed in transfected cells; host or cells: CHO K1 (ATCC) expressing firefly luciferase under a CRE-responsive promoter
Experiment: Cellular in vitro assay for determining vasopressin receptor activity, V2 receptor cell line (CHO, CRE-luciferase)
Format: cell-based
Conditions: CHO cell line transfected with human V2 receptor; [Arg8]-vasopressin at EC50 concentration, 3 hours; read-out: IC50 hV2
parameter.measured: IC50 (nM)

compound	units.text	IC50
O=C(Cc1cccnc1)Nc1ncccc1-n1cnc(Cn2nc(-c3ccc(Cl)cc3)n(C[C@H](O)C(F)(F)F)c2=O)n1	nM	1850

A. CC1=NOC(C)(C(=O)Nc2ncccc2-n2cnc(Cn3nc(-c4ccc(Cl)cc4)n(C[C@H](O)C(F)(F)F)c3=O)n2)C1 (stereo partly drawn)
B. CC1(C)CN(c2ccncc2-n2cnc(Cn3nc(-c4ccc(Cl)cc4)n(C[C@H](O)C(F)(F)F)c3=O)n2)CCN1
Incoming: Consider A and B . Which of these has its IC50 at a higher number? Give the label of your selection.
Outgoing: B
(B: 5330 nM, A: 2400 nM)

###

Molecular target: human V2 receptor (Homo sapiens, UniProt P30518)
Construct: expressed in transfected cells; host or cells: CHO K1 (ATCC) expressing firefly luciferase under a CRE-responsive promoter
Sequence (P30518 whole entry): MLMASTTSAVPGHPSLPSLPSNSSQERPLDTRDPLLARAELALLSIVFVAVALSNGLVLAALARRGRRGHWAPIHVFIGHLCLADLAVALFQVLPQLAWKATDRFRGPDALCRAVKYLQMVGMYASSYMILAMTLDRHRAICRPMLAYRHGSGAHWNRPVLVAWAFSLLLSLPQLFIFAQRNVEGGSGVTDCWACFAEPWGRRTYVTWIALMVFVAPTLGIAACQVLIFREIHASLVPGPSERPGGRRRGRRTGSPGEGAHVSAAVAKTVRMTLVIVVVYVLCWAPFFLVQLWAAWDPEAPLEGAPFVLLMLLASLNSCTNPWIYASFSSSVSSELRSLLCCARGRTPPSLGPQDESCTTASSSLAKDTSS
Experiment: Cellular in vitro assay for determining vasopressin receptor activity, V2 receptor cell line (CHO, CRE-luciferase)
Type: cell-based
Settings: CHO cell line transfected with human V2 receptor; [Arg8]-vasopressin at EC50 concentration, 3 hours; read-out: IC50 hV2
parameter.measured: IC50 (µM)

input.smiles	tested.system	units.text	IC50
NC(=O)[C@H]1CC(F)(F)CN1C(=O)c1ccccc1-n1cnc(Cn2nc(-c3ccc(Cl)cc3)n(C[C@H](O)C(F)(F)F)c2=O)n1	human V2 receptor (Homo sapiens, UniProt P30518)	µM	5.4
CN1CCCN(C(=O)c2ccccc2-n2cnc(Cn3nc(-c4ccc(Cl)cc4)n(C[C@H](O)C(F)(F)F)c3=O)n2)CC1	human V2 receptor (Homo sapiens, UniProt P30518)	µM	7.7
O=C(Nc1ncccc1-n1cnc(Cn2nc(-c3ccc(Cl)cc3)n(C[C@H](O)C(F)(F)F)c2=O)n1)C1CCC1	human V2 receptor (Homo sapiens, UniProt P30518)	µM	0.49
O=C(NCc1ccccc1)c1ccccc1-n1cnc(Cn2nc(-c3ccc(Cl)cc3)n(C[C@H](O)C(F)(F)F)c2=O)n1	human V2 receptor (Homo sapiens, UniProt P30518)	µM	0.265
Cn1cncc1C(=O)Nc1ncccc1-n1cnc(Cn2nc(-c3ccc(Cl)cc3)n(C[C@H](O)C(F)(F)F)c2=O)n1	human V2 receptor (Homo sapiens, UniProt P30518)	µM	5.15

a. NC(=O)C1CN(C(=O)c2ccccc2-n2cnc(Cn3nc(-c4ccc(Cl)cc4)n(C[C@H](O)C(F)(F)F)c3=O)n2)C1
b. CN(C)C1CN(C(=O)c2ccccc2-n2cnc(Cn3nc(-c4ccc(Cl)cc4)n(C[C@H](O)C(F)(F)F)c3=O)n2)C1
c. Cc1nnc(NC(=O)c2ccccc2-n2cnc(Cn3nc(-c4ccc(Cl)cc4)n(C[C@H](O)C(F)(F)F)c3=O)n2)s1
Incoming: Please list these in order of increasing IC50. Thank you! Arrange the labels as the request states and list them.
Outgoing: c, b, a
(c: 0.0445 µM, b: 2.5 µM, a: 3.65 µM)

These measurements were taken from patent US11173151B2.
